- Assay Text: NCI Yeast Anticancer Drug Screen. Data for the wt2 strain (AID 169)
- Cond: S. cerevisiae wt2 strain growth inhibition; at 100.0 µM
This is part of a sample that, as a whole, favours compounds with a hit. Of some 79,000 tested, about 15% had one in any assay. Calls of active or inactive are those of the source. Cut-off read from the data, not from the text of the source: active = growth inhibition above about 70%; inactive = the rest.
Possible outcomes: true = active, false = inactive

{"Molecule": "O=C(NNc1ccnc2cc(Cl)ccc12)/C(=C\\c1ccccc1Cl)NC(=O)c1ccccc1", "Qualitative Label": "false"}
{"Molecule": "O=C1OC(CCl)CN1/N=C/c1ccc([N+](=O)[O-])o1 (stereo not drawn)", "Qualitative Label": "true"}
{"Molecule": "CCN(CC)CCC(=O)c1ccc(Oc2ccc(F)cc2)cc1", "Qualitative Label": "true"}
{"Molecule": "CC(=O)Cc1ccc[cH-]1.[Fe+2].c1cc[cH-]c1", "Qualitative Label": "false"}
{"Molecule": "OC(c1ccc(F)cc1)(c1ccc(F)cc1)C1CC1", "Qualitative Label": "true"}
{"Molecule": "COC1=CC(=O)C(C2(OC(C)C)OC(=O)C(Cl)=C2Cl)=CC1=O (stereo not drawn)", "Qualitative Label": "true"}
{"Molecule": "O=C(OCCN1CCCCCC1)C(c1ccsc1)C1CCCCC1 (stereo not drawn)", "Qualitative Label": "true"}
{"Molecule": "O=C1c2ccccc2-c2n[nH]c3cccc1c23", "Qualitative Label": "false"}
{"Molecule": "CC(=O)Oc1cc(-c2cc(OC(C)=O)c(OC(C)=O)c3ccccc23)c2ccccc2c1OC(C)=O", "Qualitative Label": "true"}
{"Molecule": "CCCCCCCCCC/C=C\\C(=O)O", "Qualitative Label": "true"}
{"Molecule": "CCC(C)COC(=O)c1ccc(N=Cc2ccc(C=Nc3ccc(C(=O)OCC(C)CC)cc3)cc2)cc1 (stereo not drawn)", "Qualitative Label": "false"}
{"Molecule": "CCCCOC(=O)N[C@H]1CCc2cc(OC)c(OC)c(OC)c2-c2ccc(SC)c(=O)cc21", "Qualitative Label": "true"}
{"Molecule": "COc1ccc2nc3cccc([N+](=O)[O-])c3c(NCCN(CCO)CCO)c2c1", "Qualitative Label": "true"}
{"Molecule": "C=CCC1=C(C)C(OC(=O)/C=C/c2ccccc2)CC1=O (stereo not drawn)", "Qualitative Label": "false"}
{"Molecule": "Cc1ccc(S(=O)(=O)NNC(=S)Nc2cccc3ccccc23)cc1", "Qualitative Label": "false"}
{"Molecule": "CCCCCCCCCCCCCCC(C(=O)[O-])[n+]1ccccc1 (stereo not drawn)", "Qualitative Label": "true"}
{"Molecule": "O=C1c2cc([N+](=O)[O-])ccc2-c2cccc(F)c21", "Qualitative Label": "false"}
{"Molecule": "CN(C)Cc1cc(N=Nc2ccc(Cl)cc2)cc(CN(C)C)c1O", "Qualitative Label": "true"}
{"Molecule": "CCc1ncnc2cc(OCC3CO3)c(OC)cc12 (stereo not drawn)", "Qualitative Label": "true"}
{"Molecule": "COc1ccccc1N=NC(C(=O)c1ccccc1)C(=O)c1ccccc1", "Qualitative Label": "true"}
{"Molecule": "O=C1CSC(/C=C/c2ccccc2)N1c1ccc(-c2ccc(-n3c(-c4ccccc4)nc4ccccc4c3=O)cc2)cc1 (stereo not drawn)", "Qualitative Label": "false"}
{"Molecule": "CCN(CC)CC(O)c1ccc2ccc3ccccc3c2c1 (stereo not drawn)", "Qualitative Label": "false"}
{"Molecule": "CN(C)C[C@H]1CC[C@@H](CN(C)C)C1=O", "Qualitative Label": "true"}
